# pEC50 values compiled below
Biological target: human cholecystokinin-2 receptor (CCK-2R) (Homo sapiens)
Construct: host or cells: 1321-N1 cells (plasma membranes prepared by Evotec AG Hamburg)
Sequence (P32239 1-447): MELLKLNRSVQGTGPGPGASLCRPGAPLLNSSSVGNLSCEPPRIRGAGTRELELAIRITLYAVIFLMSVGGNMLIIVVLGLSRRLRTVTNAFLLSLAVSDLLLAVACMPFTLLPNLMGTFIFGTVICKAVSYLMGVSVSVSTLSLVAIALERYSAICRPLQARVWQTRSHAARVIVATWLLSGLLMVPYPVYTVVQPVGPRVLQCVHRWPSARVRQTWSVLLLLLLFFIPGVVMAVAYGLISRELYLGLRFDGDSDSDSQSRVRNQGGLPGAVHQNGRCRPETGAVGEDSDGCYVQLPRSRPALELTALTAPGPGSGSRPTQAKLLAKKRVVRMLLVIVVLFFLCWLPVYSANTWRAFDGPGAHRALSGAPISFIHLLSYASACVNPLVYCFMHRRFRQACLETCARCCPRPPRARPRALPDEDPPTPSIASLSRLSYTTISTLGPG
Assay: In vitro potency on CCK-2R, whole cell functional assay (IP1 accumulation, IP-One HTRF)
Type: cell-based
Conditions: 1321-N1 cells stably expressing CCK-2R; IP1 accumulation; highest dose tested 1×10^6 pM; read-out: EC50 (CCK-2R)
pEC50: −log10 of the molar value. Starred links: 1 amine or outer side, 2 acyl side, 3 side chain; linkers in the order of their positions; H or OH if unused. Non-standard residues stand in square brackets, D forms with d. Residues, ends and D or L forms follow the SMILES beside them. *: point of attachment. sY = N[C@@H](Cc1ccc(OS(=O)(=O)O)cc1)C(=O)O; C18 diacid = O=C(O)CCCCCCCCCCCCCCCCC(=O)*; γGlu = O=C(O)[C@H](CCC(=O)[*:2])N[*:1]; C14 diacid = O=C(O)CCCCCCCCCCCCC(=O)*; Met(O2) = CS(=O)(=O)CC[C@H](N)C(=O)O; NMeF = CN[C@@H](Cc1ccccc1)C(=O)O; dNMeD = CN[C@H](CC(=O)O)C(=O)O; Nle = CCCC[C@H](N)C(=O)O; AEEA = NCCOCCOCC(=O)O

Please review the following examples before continuing.
Lookup: Recorded pEC50 for CCCC[C@H](NC(=O)[C@H](Cc1c[nH]c2ccccc12)NC(=O)CNC(=O)[C@H](CO)NC(=O)[C@H](Cc1ccc(OS(=O)(=O)O)cc1)NC(=O)[C@@H](N)CC(=O)O)C(=O)N(C)[C@H](CC(=O)O)C(=O)N(C)[C@@H](Cc1ccccc1)C(N)=O [Example 79] (H-D[sY]SGW[Nle][dNMeD][NMeF]-NH2) with human cholecystokinin-2 receptor (CCK-2R) (Homo sapiens), please?
Found: < 6.00

Lookup: Recorded pEC50 for CC(C)C[C@H](NC(=O)[C@H](Cc1ccc(OS(=O)(=O)O)cc1)NC(=O)[C@H](CCC(=O)O)NC(=O)COCCOCCNC(=O)COCCOCCNC(=O)CC[C@H](NC(=O)CCCCCCCCCCCCCCCCC(=O)O)C(=O)O)C(=O)NCC(=O)N[C@@H](Cc1c[nH]c2ccccc12)C(=O)N[C@@H](CCC(N)=O)C(=O)N(C)[C@H](CC(=O)O)C(=O)N(C)[C@@H](Cc1ccccc1)C(N)=O with human cholecystokinin-2 receptor (CCK-2R) (Homo sapiens), please?
Found: < 6.00

Lookup: Recorded pEC50 for CCCC[C@H](NC(=O)[C@H](Cc1c[nH]c2ccccc12)NC(=O)CNC(=O)[C@H](Cc1c[nH]cn1)NC(=O)[C@H](Cc1ccc(OS(=O)(=O)O)cc1)NC(=O)[C@H](CC(=O)O)NC(=O)COCCOCCNC(=O)COCCOCCNC(=O)CC[C@H](NC(=O)CCCCCCCCCCCCCCCCC(=O)O)C(=O)O)C(=O)N(C)[C@H](CC(=O)O)C(=O)N(C)[C@@H](Cc1ccccc1)C(N)=O [Example 48] ({C18 diacid-γGlu-AEEA-AEEA}-D[sY]HGW[Nle][dNMeD][NMeF]-NH2) with human cholecystokinin-2 receptor (CCK-2R) (Homo sapiens), please?
Found: < 6.00

Lookup: Recorded pEC50 for CCCC[C@H](NC(=O)[C@H](Cc1c[nH]c2ccccc12)NC(=O)CNC(=O)[C@H](CC(C)C)NC(=O)[C@H](Cc1ccc(OS(=O)(=O)O)cc1)NC(=O)[C@H](CCC(=O)O)NC(=O)COCCOCCNC(=O)COCCOCCNC(=O)CC[C@H](NC(=O)CCCCCCCCCCCCC(=O)O)C(=O)O)C(=O)N(C)[C@H](CC(=O)O)C(=O)N(C)[C@@H](Cc1ccccc1)C(N)=O [Example 36] ({C14 diacid-γGlu-AEEA-AEEA}-E[sY]LGW[Nle][dNMeD][NMeF]-NH2) with human cholecystokinin-2 receptor (CCK-2R) (Homo sapiens), please?
Found: 6.82

Lookup: Recorded pEC50 for CCCC[C@H](NC(=O)[C@H](Cc1c[nH]c2ccccc12)NC(=O)CNC(=O)[C@H](CC(C)C)NC(=O)[C@H](Cc1ccc(OS(=O)(=O)O)cc1)NC(=O)[C@@H](N)CC(=O)O)C(=O)N(C)[C@H](CC(=O)O)C(=O)N[C@@H](Cc1ccccc1)C(N)=O with human cholecystokinin-2 receptor (CCK-2R) (Homo sapiens), please?
Found: < 6.00

Query molecule follows.
Lookup: Recorded pEC50 for CC(C)C[C@H](NC(=O)[C@H](Cc1ccc(OS(=O)(=O)O)cc1)NC(=O)[C@@H](N)CC(=O)O)C(=O)NCC(=O)N[C@@H](Cc1c[nH]c2ccccc12)C(=O)N[C@@H](CCS(C)(=O)=O)C(=O)N(C)[C@H](CC(=O)O)C(=O)N(C)[C@@H](Cc1ccccc1)C(N)=O [Example 63] (H-D[sY]LGW[Met(O2)][dNMeD][NMeF]-NH2) with human cholecystokinin-2 receptor (CCK-2R) (Homo sapiens), please?
Found: < 6.00

----------
Biological target: human cholecystokinin-1 receptor (CCK-1R) (Homo sapiens)
Construct: host or cells: 1321-N1 cells
Sequence (P32238 1-428): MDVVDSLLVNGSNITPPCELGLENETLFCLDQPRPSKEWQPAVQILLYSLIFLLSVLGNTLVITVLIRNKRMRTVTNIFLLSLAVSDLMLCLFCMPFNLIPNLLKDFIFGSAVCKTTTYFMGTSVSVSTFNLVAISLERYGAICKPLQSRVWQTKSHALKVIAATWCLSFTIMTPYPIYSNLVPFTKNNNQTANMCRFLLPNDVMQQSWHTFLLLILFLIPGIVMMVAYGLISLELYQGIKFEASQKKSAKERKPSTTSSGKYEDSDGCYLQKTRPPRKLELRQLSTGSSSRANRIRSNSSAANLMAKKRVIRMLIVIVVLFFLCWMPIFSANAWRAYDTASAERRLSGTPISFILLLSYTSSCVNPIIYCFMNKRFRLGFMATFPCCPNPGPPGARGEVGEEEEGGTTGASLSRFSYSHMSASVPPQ
Experiment: In vitro receptor binding to CCK-1R, SPA displacement of [125I]-CCK-8s from plasma membranes
Conditions: displacement of [125I]-CCK-8s, plasma membranes of 1321-N1 cells expressing CCK-1R; read-out: IC50 (CCK-1R)
Procedure: The in vitro binding affinity is a measure of the strength of attraction between a receptor and its ligand. Displacement of radio ligand was measured as reduction in light emission from SPA beads. […] A minimum of three biological replicates was measured for each test compound on separate assay plates.
Starred links: 1 amine or outer side, 2 acyl side, 3 side chain; linkers in the order of their positions; H or OH if unused. Non-standard residues stand in square brackets, D forms with d. Residues, ends and D or L forms follow the SMILES beside them. *: point of attachment. sY = N[C@@H](Cc1ccc(OS(=O)(=O)O)cc1)C(=O)O; C18 diacid = O=C(O)CCCCCCCCCCCCCCCCC(=O)*; γGlu = O=C(O)[C@H](CCC(=O)[*:2])N[*:1]; 1Nal = N[C@@H](Cc1cccc2ccccc12)C(=O)O; NMeF = CN[C@@H](Cc1ccccc1)C(=O)O; dNMeD = CN[C@H](CC(=O)O)C(=O)O; Nle = CCCC[C@H](N)C(=O)O; AEEA = NCCOCCOCC(=O)O
MEASURED QUANTITY: IC50
# answer = value followed by unit

Please review the following examples before continuing.
Lookup: // returns reported IC50 for input CCCC[C@H](NC(=O)[C@H](Cc1ccc(OS(=O)(=O)O)cc1)NC(=O)[C@H](CC(=O)O)NC(=O)COCCOCCNC(=O)COCCOCCNC(=O)CC[C@H](NC(=O)CCCCCCCCCCCCCCCCC(=O)O)C(=O)O)C(=O)NCC(=O)N[C@@H](Cc1c[nH]c2ccccc12)C(=O)N[C@@H](CCCC)C(=O)N(C)[C@H](CC(=O)O)C(=O)N[C@@H](Cc1cccc2ccccc12)C(N)=O [Example 2] ({C18 diacid-γGlu-AEEA-AEEA}-D[sY][Nle]GW[Nle][dNMeD][1Nal]-NH2)
Found: 0.13 nM

Lookup: // returns reported IC50 for input CCCC[C@H](NC(=O)[C@H](Cc1c[nH]c2ccccc12)NC(=O)CNC(=O)[C@H](CC(C)C)NC(=O)[C@H](Cc1ccc(OS(=O)(=O)O)cc1)NC(=O)[C@H](CC(=O)O)NC(=O)[C@H](CO)NC(=O)[C@H](CO)NC(=O)CNC(=O)[C@H](CO)NC(=O)[C@H](CO)NC(=O)CNC(=O)CCCCCCCCCCCCCCCCC(=O)O)C(=O)N(C)[C@H](CC(=O)O)C(=O)N(C)[C@@H](Cc1ccccc1)C(N)=O [Example 29] ({C18 diacid}-GSSGSSD[sY]LGW[Nle][dNMeD][NMeF]-NH2)
Found: 0.072 nM

Lookup: // returns reported IC50 for input CCCC[C@H](NC(=O)[C@H](Cc1c[nH]c2ccccc12)NC(=O)CNC(=O)[C@H](Cc1ccccc1)NC(=O)[C@H](Cc1ccc(OS(=O)(=O)O)cc1)NC(=O)[C@@H](N)CC(=O)O)C(=O)N(C)[C@H](CC(=O)O)C(=O)N(C)[C@@H](Cc1ccccc1)C(N)=O [Example 78] (H-D[sY]FGW[Nle][dNMeD][NMeF]-NH2)
Found: 0.029 nM

Continuing:
Lookup: // returns reported IC50 for input CCCC[C@H](NC(=O)[C@H](Cc1c[nH]c2ccccc12)NC(=O)CNC(=O)[C@H](CC(C)C)NC(=O)[C@H](Cc1ccc(OS(=O)(=O)O)cc1)NC(=O)[C@H](CC(=O)O)NC(=O)COCCOCCNC(=O)COCCOCCNC(=O)CC[C@H](NC(=O)CC[C@H](NC(=O)CCCCCCCCCCCCCCCCC(=O)O)C(=O)O)C(=O)O)C(=O)N(C)[C@H](CC(=O)O)C(=O)N(C)[C@@H](Cc1ccccc1)C(N)=O
Found: 0.1 nM

Reference for the values: patent US20170008928A1
